Assignment: determine reported protein stability index for the given variants.
B1: GNAI1 (parent)
chain: WIHCFEGVTAIIFCVALSDYDLVL

Variants of: B1
Assay: protein stability index of a GFP-peptide fusion (GPS, HEK-293T) (PSI 1-6); higher = more stable;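 also: lentivirally expressed fusions sorted by FACS into six bins by GFP to DsRed ratio, PSI derived from sequencing read proportions per bin multiplied by bin number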
Conditions: c terminus: a fixed tail appended
API doc: respond with a numeric literal and nothing else, no unit.

Problem: I'd like to know its protein stability index. The variant in question is T9S
Solution: 2

Problem: Try this variant next: L24Q
Solution: 1.69

Problem: // same read-out, input: V8F
Solution: 3.11

Problem: What about D19S ?
Solution: 2.77

Problem: What about this variant? V15H
Solution: 3.01

Problem: Queued: F5P
Solution: 3.42

Problem: Same for C4Y
Solution: 2.43

Problem: And what about the variant W1L ?
Solution: 3.13

Problem: // repeat for F5N and report
Solution: 2.79

Problem: Likewise for C14F ?
Solution: 3.23

Problem: Can you handle I2S next?
Solution: 2.82

Problem: Now try I11D .
Solution: 3.47

Problem: Now give it for C4K too.
Solution: 3.1

Problem: Try this variant next: W1N
Solution: 2.99

Problem: What do you have for I12Q ?
Solution: 1

Problem: And for D19E ?
Solution: 3.67

Problem: Then what about the variant L24P ?
Solution: 2.78

Problem: Also L24W ?
Solution: 1.92

Problem: Proceed to L22C
Solution: 1.87

Problem: Input S18D
Solution: 2.67

Problem: And what about the variant I2F ?
Solution: 1.63

Problem: Also F5M , if possible.
Solution: 2.91

Problem: Also need V8K , thanks.
Solution: 1.95

Problem: Now give it for L24R too.
Solution: 3.04

Problem: Next variant up: F5K
Solution: 2.11

Problem: And then Y20D , what is it?
Solution: 3.02

Problem: Check T9C too.
Solution: 2.57

Problem: What would you report for V8Q ?
Solution: 3.32

Problem: Continue with A16N
Solution: 2.25

Problem: Same for L22W
Solution: 3.57

Problem: Now consider L22F .
Solution: 2.5

Problem: Please do the same for L22H as well.
Solution: 1.34

Problem: Entry to check: V8M
Solution: 2.09

Problem: Input T9I
Solution: 4.15

Problem: Then what about the variant A10T ?
Solution: 2.48

Problem: Item: L24M
Solution: 2.29

Problem: Now this one: T9D
Solution: 3.05

Problem: Same question for I11M please.
Solution: 3.01

Problem: Next up: G7D
Solution: 3.39

Problem: Note, next up: L17T
Solution: 2.04

Problem: Check C14D too.
Solution: 4.12

Problem: Another variant: L17R
Solution: 2.51

Problem: Another variant: G7H
Solution: 2.92

Problem: // same read-out, input: A16S
Solution: 3.92

Problem: Would you kindly repeat that for L22Q ?
Solution: 3.71

Problem: And then A10K , what is it?
Solution: 2.31
